Assay: Human cells cytotoxicity, HeLa
Assay type: cell-based
Conditions: human, HeLa cells; HeLa cell line

compound	IC50
CC(=O)N[C@H]1[C@H](Oc2ccc(COC(=O)N[C@@H]3[C@H](O)[C@H](O[C@H]4/C=C/C=C/C=C/C=C/C=C/C=C/C=C/[C@H](C)[C@@H](O)[C@@H](C)[C@H](C)OC(=O)C[C@H](O)C[C@H](O)CC[C@@H](O)[C@H](O)C[C@H](O)C[C@]5(O)C[C@H](O)[C@@H](C(=O)O)[C@H](C4)O5)O[C@H](C)[C@H]3O)cc2[N+](=O)[O-])O[C@H](CO)[C@@H](O)[C@@H]1O [Compound 1]	> 100 µM
